Reference source for all entries: paper PMC6001238

system: E. faecalis VRE 53; experiment: MIC, broth microdilution, vancomycin-resistant E. faecalis VRE 53 (VanA); type: cell-based, Enterococcus faecalis; settings: Enterococcus faecalis VRE 53 (vancomycin-resistant); read-out: MIC
Measured MIC by item

compound	MIC (µM)
CCCCCCCC[N+](C)(C)CCCNC(=O)c1ccc(NC(=O)CNC(=O)C2NC(=O)C3NC(=O)C(NC(=O)C4NC(=O)C(CC(N)=O)NC(=O)C(NC(=O)C(CC(C)C)NC)C(O)c5ccc(c(Cl)c5)Oc5cc4cc(c5OC4OC(CO)C(O)C(O)C4OC4CC(C)(N)C(O)C(C)O4)Oc4ccc(cc4Cl)C3O)c3ccc(O)c(c3)-c3c(O)cc(O)cc32)cc1 (stereo not drawn)	25
CNC(CC(C)C)C(=O)NC1C(=O)NC(CC(N)=O)C(=O)NC2C(=O)NC3C(=O)NC(C(=O)NC(C(=O)NCCCNC(=O)c4ccc(C(C)(C)C)cc4)c4cc(O)cc(O)c4-c4cc3ccc4O)C(O)c3ccc(c(Cl)c3)Oc3cc2cc(c3OC2OC(CO)C(O)C(O)C2OC2CC(C)(N)C(O)C(C)O2)Oc2ccc(cc2Cl)C1O (stereo not drawn)	25
CN[C@H](CC(C)C)C(=O)N[C@H]1C(=O)N[C@@H](CC(N)=O)C(=O)N[C@H]2C(=O)N[C@H]3C(=O)N[C@H](C(=O)N[C@H](C(=O)NCCNC(=O)/C=C/c4ccc(Cl)cc4Cl)c4cc(O)cc(O)c4-c4cc3ccc4O)[C@H](O)c3ccc(c(Cl)c3)Oc3cc2cc(c3O[C@@H]2O[C@H](CO)[C@@H](O)[C@H](O)[C@H]2O[C@H]2C[C@](C)(N)[C@H](O)[C@H](C)O2)Oc2ccc(cc2Cl)[C@H]1O	12.5
CNC(CC(C)C)C(=O)NC1C(=O)NC(CC(N)=O)C(=O)NC2C(=O)NC3C(=O)NC(C(=O)NC(C(=O)NCCNC(=O)C=Cc4ccc(NS(=O)(=O)c5ccc(Cl)cc5)cc4)c4cc(O)cc(O)c4-c4cc3ccc4O)C(O)c3ccc(c(Cl)c3)Oc3cc2cc(c3OC2OC(CO)C(O)C(O)C2OC2CC(C)(N)C(O)C(C)O2)Oc2ccc(cc2Cl)C1O (stereo not drawn)	25
CNC(CC(C)C)C(=O)NC1C(=O)NC(CC(N)=O)C(=O)NC2C(=O)NC3C(=O)NC(C(=O)NC(C(=O)NCCCNC(=O)c4ccc(-c5ccc(-c6ccccc6)cc5)cc4)c4cc(O)cc(O)c4-c4cc3ccc4O)C(O)c3ccc(c(Cl)c3)Oc3cc2cc(c3OC2OC(CO)C(O)C(O)C2OC2CC(C)(N)C(O)C(C)O2)Oc2ccc(cc2Cl)C1O (stereo not drawn)	6.25
CN[C@H](CC(C)C)C(=O)N[C@H]1C(=O)N[C@@H](CC(N)=O)C(=O)N[C@H]2C(=O)N[C@H]3C(=O)N[C@H](C(=O)N[C@H](C(=O)NCCNC(=O)/C=C/c4ccc(OC)cc4)c4cc(O)cc(O)c4-c4cc3ccc4O)[C@H](O)c3ccc(c(Cl)c3)Oc3cc2cc(c3O[C@@H]2O[C@H](CO)[C@@H](O)[C@H](O)[C@H]2O[C@H]2C[C@](C)(N)[C@H](O)[C@H](C)O2)Oc2ccc(cc2Cl)[C@H]1O	50

====

system: MRSA KS1; assay: MIC, broth microdilution, MRSA KS1; assay type: cell-based, Staphylococcus aureus; conditions: MRSA KS1; ratio of MIC of vancomycin and MIC of analogue
reportedEndpoint: MIC-fold improvement vs. vancomycin

compound	reportedEndpoint	valuePrefix	resultNumber
CNC(CC(C)C)C(=O)NC1C(=O)NC(CC(N)=O)C(=O)NC2C(=O)NC3C(=O)NC(C(=O)NC(C(=O)NCCNC(=O)C=Cc4ccc(NS(=O)(=O)c5ccc(Cl)cc5)cc4)c4cc(O)cc(O)c4-c4cc3ccc4O)C(O)c3ccc(c(Cl)c3)Oc3cc2cc(c3OC2OC(CO)C(O)C(O)C2OC2CC(C)(N)C(O)C(C)O2)Oc2ccc(cc2Cl)C1O (stereo not drawn)	MIC-fold improvement vs. vancomycin	=	4
CCCCC#Cc1ccc(/C=C/C(=O)NCCNC(=O)[C@H]2NC(=O)[C@H]3NC(=O)[C@H](NC(=O)[C@@H]4NC(=O)[C@H](CC(N)=O)NC(=O)[C@H](NC(=O)[C@@H](CC(C)C)NC)[C@H](O)c5ccc(c(Cl)c5)Oc5cc4cc(c5O[C@@H]4O[C@H](CO)[C@@H](O)[C@H](O)[C@H]4O[C@H]4C[C@](C)(N)[C@H](O)[C@H](C)O4)Oc4ccc(cc4Cl)[C@H]3O)c3ccc(O)c(c3)-c3c(O)cc(O)cc32)cc1	MIC-fold improvement vs. vancomycin	>	8
CN[C@H](CC(C)C)C(=O)N[C@H]1C(=O)N[C@@H](CC(N)=O)C(=O)N[C@H]2C(=O)N[C@H]3C(=O)N[C@H](C(=O)N[C@H](C(=O)NCC(=O)Nc4ccc(C)cc4C)c4cc(O)cc(O)c4-c4cc3ccc4O)[C@H](O)c3ccc(c(Cl)c3)Oc3cc2cc(c3O[C@@H]2O[C@H](CO)[C@@H](O)[C@H](O)[C@H]2O[C@H]2C[C@](C)(N)[C@H](O)[C@H](C)O2)Oc2ccc(cc2Cl)[C@H]1O	MIC-fold improvement vs. vancomycin	=	1
CN[C@H](CC(C)C)C(=O)N[C@H]1C(=O)N[C@@H](CC(N)=O)C(=O)N[C@H]2C(=O)N[C@H]3C(=O)N[C@H](C(=O)N[C@H](C(=O)NCC(=O)Nc4ccc(Cl)cc4)c4cc(O)cc(O)c4-c4cc3ccc4O)[C@H](O)c3ccc(c(Cl)c3)Oc3cc2cc(c3O[C@@H]2O[C@H](CO)[C@@H](O)[C@H](O)[C@H]2O[C@H]2C[C@](C)(N)[C@H](O)[C@H](C)O2)Oc2ccc(cc2Cl)[C@H]1O	MIC-fold improvement vs. vancomycin	=	2
CNC(CC(C)C)C(=O)NC1C(=O)NC(CC(N)=O)C(=O)NC2C(=O)NC3C(=O)NC(C(=O)NC(C(=O)NCC(=O)Nc4ccc(C#CC5CC5)cc4)c4cc(O)cc(O)c4-c4cc3ccc4O)C(O)c3ccc(c(Cl)c3)Oc3cc2cc(c3OC2OC(CO)C(O)C(O)C2OC2CC(C)(N)C(O)C(C)O2)Oc2ccc(cc2Cl)C1O (stereo not drawn)	MIC-fold improvement vs. vancomycin	=	4
CN[C@H](CC(C)C)C(=O)N[C@H]1C(=O)N[C@@H](CC(N)=O)C(=O)N[C@H]2C(=O)N[C@H]3C(=O)N[C@H](C(=O)N[C@H](C(=O)NCC(=O)Nc4cccc5ccccc45)c4cc(O)cc(O)c4-c4cc3ccc4O)[C@H](O)c3ccc(c(Cl)c3)Oc3cc2cc(c3O[C@@H]2O[C@H](CO)[C@@H](O)[C@H](O)[C@H]2O[C@H]2C[C@](C)(N)[C@H](O)[C@H](C)O2)Oc2ccc(cc2Cl)[C@H]1O	MIC-fold improvement vs. vancomycin	=	2

====

test system: MRSA KS1; assay: MIC, broth microdilution, MRSA KS1; format: cell-based, Staphylococcus aureus; conditions: MRSA KS1; ratio of MIC of vancomycin and MIC of analogue
Measured MIC-fold improvement vs. vancomycin by item

molecule	MIC-fold improvement vs. vancomycin
CNC(CC(C)C)C(=O)NC1C(=O)NC(CC(N)=O)C(=O)NC2C(=O)NC3C(=O)NC(C(=O)NC(C(=O)NCCCNC(=O)c4ccc(-c5ccccc5)cc4)c4cc(O)cc(O)c4-c4cc3ccc4O)C(O)c3ccc(c(Cl)c3)Oc3cc2cc(c3OC2OC(CO)C(O)C(O)C2OC2CC(C)(N)C(O)C(C)O2)Oc2ccc(cc2Cl)C1O (centres unmarked)	2
CN[C@H](CC(C)C)C(=O)N[C@H]1C(=O)N[C@@H](CC(N)=O)C(=O)N[C@H]2C(=O)N[C@H]3C(=O)N[C@H](C(=O)N[C@H](C(=O)NCC(=O)Nc4cc(C)ccc4O)c4cc(O)cc(O)c4-c4cc3ccc4O)[C@H](O)c3ccc(c(Cl)c3)Oc3cc2cc(c3O[C@@H]2O[C@H](CO)[C@@H](O)[C@H](O)[C@H]2O[C@H]2C[C@](C)(N)[C@H](O)[C@H](C)O2)Oc2ccc(cc2Cl)[C@H]1O	1
C#Cc1ccc(C=Cc2ccc(NC(=O)CNC(=O)C3NC(=O)C4NC(=O)C(NC(=O)C5NC(=O)C(CC(N)=O)NC(=O)C(NC(=O)C(CC(C)C)NC)C(O)c6ccc(c(Cl)c6)Oc6cc5cc(c6OC5OC(CO)C(O)C(O)C5OC5CC(C)(N)C(O)C(C)O5)Oc5ccc(cc5Cl)C4O)c4ccc(O)c(c4)-c4c(O)cc(O)cc43)cc2)cc1 (centres unmarked)	1
CN[C@H](CC(C)C)C(=O)N[C@H]1C(=O)N[C@@H](CC(N)=O)C(=O)N[C@H]2C(=O)N[C@H]3C(=O)N[C@H](C(=O)N[C@H](C(=O)NCC(=O)Nc4cccc(F)c4)c4cc(O)cc(O)c4-c4cc3ccc4O)[C@H](O)c3ccc(c(Cl)c3)Oc3cc2cc(c3O[C@@H]2O[C@H](CO)[C@@H](O)[C@H](O)[C@H]2O[C@H]2C[C@](C)(N)[C@H](O)[C@H](C)O2)Oc2ccc(cc2Cl)[C@H]1O	2
CN[C@H](CC(C)C)C(=O)N[C@H]1C(=O)N[C@@H](CC(N)=O)C(=O)N[C@H]2C(=O)N[C@H]3C(=O)N[C@H](C(=O)N[C@H](C(=O)NCCNC(=O)/C=C/c4ccc(NS(=O)(=O)c5ccc(Cl)cc5Cl)cc4)c4cc(O)cc(O)c4-c4cc3ccc4O)[C@H](O)c3ccc(c(Cl)c3)Oc3cc2cc(c3O[C@@H]2O[C@H](CO)[C@@H](O)[C@H](O)[C@H]2O[C@H]2C[C@](C)(N)[C@H](O)[C@H](C)O2)Oc2ccc(cc2Cl)[C@H]1O	4
CN[C@H](CC(C)C)C(=O)N[C@H]1C(=O)N[C@@H](CC(N)=O)C(=O)N[C@H]2C(=O)N[C@H]3C(=O)N[C@H](C(=O)N[C@H](C(=O)NCC(=O)Nc4ccc(C#Cc5ccccc5)cc4)c4cc(O)cc(O)c4-c4cc3ccc4O)[C@H](O)c3ccc(c(Cl)c3)Oc3cc2cc(c3O[C@@H]2O[C@H](CO)[C@@H](O)[C@H](O)[C@H]2O[C@H]2C[C@](C)(N)[C@H](O)[C@H](C)O2)Oc2ccc(cc2Cl)[C@H]1O	4
CN[C@H](CC(C)C)C(=O)N[C@H]1C(=O)N[C@@H](CC(N)=O)C(=O)N[C@H]2C(=O)N[C@H]3C(=O)N[C@H](C(=O)N[C@H](C(=O)NCC(=O)Nc4ccc(Cl)cc4Cl)c4cc(O)cc(O)c4-c4cc3ccc4O)[C@H](O)c3ccc(c(Cl)c3)Oc3cc2cc(c3O[C@@H]2O[C@H](CO)[C@@H](O)[C@H](O)[C@H]2O[C@H]2C[C@](C)(N)[C@H](O)[C@H](C)O2)Oc2ccc(cc2Cl)[C@H]1O	2
CN[C@H](CC(C)C)C(=O)N[C@H]1C(=O)N[C@@H](CC(N)=O)C(=O)N[C@H]2C(=O)N[C@H]3C(=O)N[C@H](C(=O)N[C@H](C(=O)NCC(=O)Nc4ccc5c(c4)Cc4ccccc4-5)c4cc(O)cc(O)c4-c4cc3ccc4O)[C@H](O)c3ccc(c(Cl)c3)Oc3cc2cc(c3O[C@@H]2O[C@H](CO)[C@@H](O)[C@H](O)[C@H]2O[C@H]2C[C@](C)(N)[C@H](O)[C@H](C)O2)Oc2ccc(cc2Cl)[C@H]1O	2
CNC(CC(C)C)C(=O)NC1C(=O)NC(CC(N)=O)C(=O)NC2C(=O)NC3C(=O)NC(C(=O)NC(C(=O)NCCCNC(=O)c4ccc(C(C)(C)C)cc4)c4cc(O)cc(O)c4-c4cc3ccc4O)C(O)c3ccc(c(Cl)c3)Oc3cc2cc(c3OC2OC(CO)C(O)C(O)C2OC2CC(C)(N)C(O)C(C)O2)Oc2ccc(cc2Cl)C1O (centres unmarked)	1
CN[C@H](CC(C)C)C(=O)N[C@H]1C(=O)N[C@@H](CC(N)=O)C(=O)N[C@H]2C(=O)N[C@H]3C(=O)N[C@H](C(=O)N[C@H](C(=O)NCC(=O)Nc4ccc(C)cc4Cl)c4cc(O)cc(O)c4-c4cc3ccc4O)[C@H](O)c3ccc(c(Cl)c3)Oc3cc2cc(c3O[C@@H]2O[C@H](CO)[C@@H](O)[C@H](O)[C@H]2O[C@H]2C[C@](C)(N)[C@H](O)[C@H](C)O2)Oc2ccc(cc2Cl)[C@H]1O	2
CNC(CC(C)C)C(=O)NC1C(=O)NC(CC(N)=O)C(=O)NC2C(=O)NC3C(=O)NC(C(=O)NC(C(=O)NCC(=O)Nc4ccc(-c5cn(-c6ccc(C)cc6)nn5)cc4)c4cc(O)cc(O)c4-c4cc3ccc4O)C(O)c3ccc(c(Cl)c3)Oc3cc2cc(c3OC2OC(CO)C(O)C(O)C2OC2CC(C)(N)C(O)C(C)O2)Oc2ccc(cc2Cl)C1O (centres unmarked)	>8
